- assay-method-text: clinical
- setup-conditions: human, in vivo, 750 mg
value-type: half-life

Per the record, Cc1cc(Nc2ncc(Cl)c(Nc3ccccc3S(=O)(=O)C(C)C)n2)c(OC(C)C)cc1C1CCNCC1 [Ceritinib] has half-life of ~40 h
